Quick record: GI50, U251 CNS.

The examples below pair each entry with its known result.
smiles_structure=CC/C=C\C[C@H]1CC=C2C(=O)C=C[C@@H]2CC=CCCCC(=O)O[C@@H](CCCCC)CC=C2C(=O)C=C[C@@H]2CC=CCCCC(=O)O[C@@H](CCCCC)CC=C2C(=O)C=C[C@@H]2CC=CCCCC(=O)O[C@@H](CCCCC)CC=C2C(=O)C=C[C@@H]2CC=CCCCC(=O)O1 observed_value="1450 nM"
smiles_structure=CCN1C(=O)c2ccc3c4c(ccc(c24)C1=O)C(=O)N(CCCNCc1ccccc1OC)C3=O observed_value="1250 nM"

Now look at this one.
**Query** GET /values?readout=GI50&system=U251 CNS&item= Nc1ncc(-c2cnn(C3CCNCC3)c2)cc1-c1nc2cc(Cl)ccc2o1
**Result** 1380 nM

====

Tested on: SF-539 CNS
ASSAY_COMMENT: NCI tumour cell line growth inhibition, 48 h; in the data active = GI50 below about 0.43 µM; inactive = the rest
Please answer using one outcome listed in active, inactive

These solved cases illustrate the format of a correct answer.
compound=COc1cc(Nc2ncccc2C(=O)Nc2nc3ccc(F)cc3s2)cc(OC)c1OC assayed_target="SF-539 CNS" assigned_class=inactive
compound=O=C1NC(=S)S/C1=C/c1ccc2c(c1)OCO2 assayed_target="SF-539 CNS" assigned_class=inactive
compound=CS(=O)(=O)CCNCc1coc(-c2ccc3ncnc(Nc4ccc(OCc5ccccc5)cc4)c3c2)c1 assayed_target="SF-539 CNS" assigned_class=inactive
compound=CCOc1cc(C(C)(C)C)ccc1C1=N[C@H](c2ccc(Cl)cc2)[C@H](c2ccc(Cl)cc2)N1C(=O)N1CCN(CC#Cc2cccc3c2CN([C@@H]2CCC(=O)NC2=O)C3=O)CC1 assayed_target="SF-539 CNS" assigned_class=inactive
compound=CCOC(=O)Nc1cc2c(c(N)n1)N=C(c1ccc(OC)cc1)CN2 assayed_target="SF-539 CNS" assigned_class=active

We now examine a further compound.
**Query** What did the test return for CN(c1ccc(NC(=O)Nc2c(Cl)cccc2Cl)cc1)c1ccnc(Nc2cccc(CS(C)(=O)=O)c2)n1 ?
**Result** active

====

// reported TGI for each item listed
Test system: NCI-H522 lung
ASSAY_COMMENT: NCI tumour cell line growth inhibition, 48 h
Form entry: value (µM) — number only.

**Query** Quick one: TGI of Cc1c(N2C(=O)C(Cl)C2/C=C/c2ccccc2)c(=O)n(-c2ccccc2)n1C (centres undefined) ?
**Result** 34.5

====

Test system: SNB-19 CNS
ASSAY_COMMENT: NCI tumour cell line growth inhibition, 48 h
// reported TGI for each item listed

The examples below pair each entry with its known result.
compound=CC(C)CCNC(=O)c1ccc(CNC(=O)/C=C/c2cccc(Oc3ccccc3)c2)cc1 observed_value="> 100 µM"
compound=Nc1n[nH]c2cccc(C#Cc3cccc(NC(=O)c4cccc(C(F)(F)F)c4)c3)c12 observed_value="18.5 µM"
compound=N#Cc1ccc(-c2nc3c(N)ncnc3o2)cc1 observed_value="> 100 µM"

Now look at this one.
**Query** Quick one: TGI of O=C1NC(=S)N/C1=C\c1cccs1 ?
**Result** > 100 µM

====

// reported TGI for each item listed
Test system: UACC-257 melanoma
ASSAY_COMMENT: NCI tumour cell line growth inhibition, 48 h

**Query** Quick one: TGI of S=C(N/N=C/c1ccccn1)N1CCCCC1 ?
**Result** 0.188 µM

**Query** Quick one: TGI of O=C(/C=C/c1ccc(O)c(O)c1)OCC(OC(=O)/C=C/c1ccc(O)c(O)c1)C(=O)O (configuration not stated) ?
**Result** > 100 µM

**Query** Quick one: TGI of CSC(SC)(C(=O)O)c1cc(-c2c(Cl)cccc2Cl)no1 ?
**Result** > 100 µM

====

System: M14 melanoma
ASSAY_COMMENT: NCI tumour cell line growth inhibition, 48 h; in the data active means GI50 below about 0.43 µM; inactive means the rest
Please answer using one outcome listed in active, inactive

These solved cases illustrate the format of a correct answer.
compound=O=C(O)c1ccc(CN2CCC(CN[C@@H]3C[C@H]3c3ccccc3)CC2)cc1 assigned_class=inactive
compound=CCCOC(=O)N[C@H]1CCc2c(Cl)c(OC)c(OC)c(OC)c2-c2ccc(SC)c(=O)cc21 assigned_class=active
compound="C=C1c2c(C)nn(-c3ccc(C#CCOC4OC(CO)C(O)C(O)C4O)cc3)c2N(C)C23C[C@H]1C1(C)c4c(C)nn(-c5ccc(C#CCOC6OC(CO)C(O)C(O)C6O)cc5)c4N(C)C(C)(C[C@H]12)C3 (some centres not stated)" assigned_class=inactive
compound="C#CC1(O)C(COP(=O)(O)OCC(COP(=O)(O)OCC2OC(n3cc(F)c(=O)[nH]c3=O)CC2O)OCCCCCCCCCCCCCCCCCC)OC(n2ccc(N)nc2=O)C1O (configuration not stated)" assigned_class=active
compound=CCOC(=O)[CH-]C(=O)C12CC3CC(CC(C3)C1)C2.CCOC(=O)[CH-]C(=O)C12CC3CC(CC(C3)C1)C2.CC[O-].CC[O-].[Ti+4] assigned_class=inactive
compound=[N-]=[N+]=NCCCn1c2c(c3ccc([N+](=O)[O-])cc3c1=O)C(=O)c1ccccc1-2 assigned_class=inactive
compound="O=C1C=CC(=O)C2C1C1(Cl)C(Cl)=C(Cl)C2(Cl)C1(Cl)Cl (configuration not stated)" assigned_class=inactive
compound=CCOc1cccc(/C=N/NC(=O)c2cccc(Nc3ccnc(C(F)(F)F)c3)c2)c1O assigned_class=inactive
compound=CCN1C(=O)c2ccc3c4c(ccc(c24)C1=O)C(=O)N(CCCNCc1ccccc1OC)C3=O assigned_class=inactive
compound=Cc1nnc(-c2ccc(C)c(-c3ccc(C(=O)Nc4cccc(C#N)c4)cc3)c2)o1 assigned_class=inactive

**Query** What did the test return for COc1ccc2c(c1)OC1=C(C(=O)OC1)C2c1cc(OC)c2c(c1)OCCO2 (configuration not stated) ?
**Result** active

**Query** What did the test return for Nc1n[nH]c2cccc(C#Cc3cccc(NC(=O)c4cccc(C(F)(F)F)c4)c3)c12 ?
**Result** inactive

====

Tested on: MCF7 breast
ASSAY_COMMENT: NCI tumour cell line growth inhibition, 48 h
// reported GI50 for each item listed

smiles_structure=CN(c1ccc(NC(=O)Nc2c(Cl)cccc2Cl)cc1)c1ccnc(Nc2cccc(CS(C)(=O)=O)c2)n1 observed_value="2820 nM"
smiles_structure=[N-]=[N+]=NCCCn1c2c(c3ccc([N+](=O)[O-])cc3c1=O)C(=O)c1ccccc1-2 observed_value="4190 nM"

**Query** Quick one: GI50 of C[C@]12CCc3sc(Nc4ccc(OC(F)(F)F)cc4)nc3C1=CC[C@@H]1[C@@H]2CC[C@]2(C)C(=O)CC[C@@H]12 ?
**Result** 1820 nM

**Query** Quick one: GI50 of CCOc1cccc(/C=N/NC(=O)c2cccc(Nc3ccnc(C(F)(F)F)c3)c2)c1O ?
**Result** 945 nM

====

Test system: SNB-19 CNS
ASSAY_COMMENT: NCI tumour cell line growth inhibition, 48 h; in the data active = GI50 below about 0.43 µM; inactive = the rest
Please answer using one outcome listed in active, inactive

molecule=Nc1ncc(-c2cnn(C3CCNCC3)c2)cc1-c1nc2cc(Cl)ccc2o1 assayed_target="SNB-19 CNS" assigned_class=inactive
molecule="Cc1ccc(C2=C(c3ccc(C)cc3)C3(c4ccc(C)cc4)C4C(=O)OC(=O)C4C2(c2ccc(C)cc2)S3=O)cc1 (centres undefined)" assayed_target="SNB-19 CNS" assigned_class=inactive
molecule="CC(=O)OC1OC([C@H]2c3cccc(O)c3C(=O)c3c(O)cc(C)cc32)C(O)C(O)C1O (some centres undefined)" assayed_target="SNB-19 CNS" assigned_class=active
molecule=Cn1c(Cl)c(/C=C2/C(=O)Nc3ccccc32)c2ccccc21 assayed_target="SNB-19 CNS" assigned_class=inactive
molecule=CCCOC(=O)N[C@H]1CCc2c(Cl)c(OC)c(OC)c(OC)c2-c2ccc(SC)c(=O)cc21 assayed_target="SNB-19 CNS" assigned_class=active
molecule=CN(c1ccc(NC(=O)Nc2c(Cl)cccc2Cl)cc1)c1ccnc(Nc2cccc(CS(C)(=O)=O)c2)n1 assayed_target="SNB-19 CNS" assigned_class=inactive
molecule=CC1(C)N=C(N)N=C(N)N1c1ccc(CCC(=O)Nc2ccc(S(=O)(=O)F)cc2)c(Cl)c1 assayed_target="SNB-19 CNS" assigned_class=inactive
molecule=COc1ccc2c(c1)C(=O)/C(=C/c1cccc(OCC(=O)c3ccccc3)c1)O2 assayed_target="SNB-19 CNS" assigned_class=inactive

We now examine a further molecule.
**Query** What did the test return for COc1ccc2c(c1)OC1=C(C(=O)OC1)C2c1cc(OC)c2c(c1)OCCO2 (centres undefined) ?
**Result** active

====

// reported TGI for each item listed
Tested on: DU-145 prostate
ASSAY_COMMENT: NCI tumour cell line growth inhibition, 48 h
Form entry: value (µM) — number only.

compound=COc1cc2c(cc1OCCCCCCCCCCN1C(=O)c3cccc4cccc(c34)C1=O)N=C[C@@H]1CCCN1C2=O assayed_target="DU-145 prostate" endpoint_name=TGI observed_value=34.4
compound="CCCC(C)c1ccc(OCCCCCCN2CCNCC2)cc1 (stereo not drawn)" assayed_target="DU-145 prostate" endpoint_name=TGI observed_value=5.43
compound=COc1cccc2c1C(=N)c1c(O)c3c(c(O)c1C2=O)C[C@@](O)(C(C)=O)C[C@@H]3O[C@H]1C[C@H](N)[C@H](O)[C@H](C)O1 assayed_target="DU-145 prostate" endpoint_name=TGI observed_value=1.72

**Query** Quick one: TGI of C[C@]12CCc3sc(Nc4ccc(OC(F)(F)F)cc4)nc3C1=CC[C@@H]1[C@@H]2CC[C@]2(C)C(=O)CC[C@@H]12 ?
**Result** 25.1

**Query** Quick one: TGI of O=C(NN1C(=O)C(Cl)C1c1ccc(Cl)cc1)c1c(Cl)c(Cl)c(Cl)c(Cl)c1-c1nc2ccccc2[nH]1 (stereo not drawn) ?
**Result** 42.6
